Consider the following molecules; for each one, report its Ki.
biological target: rat nNOS (Rattus norvegicus); construct: made in house; host or cells: E. coli (plasmid pCWnNOS); experiment: NOS enzyme inhibitory assay (hemoglobin capture), nNOS; type: biochemical; conditions: Table 1a; apparent Ki calculated from IC50, Km […]; read-out: calc. Ki nNOS
State the value, then name its unit.

[[record]]
molecule = "Cl.Cl.Nc1cccc(CC2CN(Cc3ccccc3)CC2O)n1 (racemic)"
reading = "78.5 µM"

[[record]]
molecule = "Cl.Cl.Cl.Cl.NCCNC1CC(N)CC1Cc1cccc(N)n1 (racemic) [Compound P-44]"
reading = "2.47 µM"

[[record]]
molecule = "Cl.Cl.Cl.Cl.Nc1cccc(CC2CNCC2NCC2CCCN2)n1 (centres unmarked) [Compound P-23]"
reading = "11.2 µM"

[[record]]
molecule = "Cl.Cl.Cl.Cl.Nc1cccc(C[C@H]2CNC[C@H]2NC[C@H]2CCCN2)n1"
reading = "2.19 µM"

[[record]]
molecule = "Cl.Cl.Cl.Cl.Nc1cccc(CC2CNCC2NCC2CCCN2)n1 (centres unmarked) [Compound P-40]"
reading = "3.44 µM"


Dear colleague, could you please provide Ki for the molecules listed below?
1. Nc1cccc(CC2CNCC2NC2CCN(Cc3ccccc3)C2)n1 (racemic) [Compound P-22]
2. Cl.Cl.Cl.Cl.Nc1cccc(CC2CNCC2NCC2CCCN2)n1 (centres unmarked) [Compound P-24]
3. Cl.Cl.Cl.Cl.NCCN1CC(Cc2cccc(N)n2)C(NCCCc2ccccc2)C1 (racemic) [Compound P-9]

Return:
1: 17.9 µM; 2: 14.5 µM; 3: 28.6 µM
